# target: hT1R1/hT1R3 umami receptor (Homo sapiens, UniProt Q7RTX0+Q7RTX1)
# Construct: expressed in transfected cells; host or cells: HEK293 derivative stably expressing Gα15, clone I-17, expression induced with mifepristone
# Sequence (Q7RTX1 21-841): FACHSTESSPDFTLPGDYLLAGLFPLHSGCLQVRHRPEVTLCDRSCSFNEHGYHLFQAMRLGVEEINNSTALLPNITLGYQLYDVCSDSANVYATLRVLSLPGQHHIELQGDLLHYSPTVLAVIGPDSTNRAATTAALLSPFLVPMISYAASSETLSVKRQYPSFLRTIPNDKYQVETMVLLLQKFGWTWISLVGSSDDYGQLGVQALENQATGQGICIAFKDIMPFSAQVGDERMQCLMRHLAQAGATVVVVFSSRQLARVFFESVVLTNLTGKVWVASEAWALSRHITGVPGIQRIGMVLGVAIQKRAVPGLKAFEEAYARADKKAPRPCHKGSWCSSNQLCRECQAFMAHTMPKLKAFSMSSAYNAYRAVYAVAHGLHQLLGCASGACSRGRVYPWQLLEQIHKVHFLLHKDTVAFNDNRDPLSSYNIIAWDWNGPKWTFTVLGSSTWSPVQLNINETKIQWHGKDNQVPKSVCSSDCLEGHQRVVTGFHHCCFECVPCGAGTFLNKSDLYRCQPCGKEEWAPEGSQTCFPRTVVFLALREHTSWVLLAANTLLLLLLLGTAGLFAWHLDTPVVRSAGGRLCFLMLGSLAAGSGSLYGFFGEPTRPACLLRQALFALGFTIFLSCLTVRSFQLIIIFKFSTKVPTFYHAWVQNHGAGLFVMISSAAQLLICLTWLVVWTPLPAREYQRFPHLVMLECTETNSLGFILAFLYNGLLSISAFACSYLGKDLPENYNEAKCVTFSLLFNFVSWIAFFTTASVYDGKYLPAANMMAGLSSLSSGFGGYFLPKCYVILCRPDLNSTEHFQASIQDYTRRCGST
# Sequence (Q7RTX0 21-852): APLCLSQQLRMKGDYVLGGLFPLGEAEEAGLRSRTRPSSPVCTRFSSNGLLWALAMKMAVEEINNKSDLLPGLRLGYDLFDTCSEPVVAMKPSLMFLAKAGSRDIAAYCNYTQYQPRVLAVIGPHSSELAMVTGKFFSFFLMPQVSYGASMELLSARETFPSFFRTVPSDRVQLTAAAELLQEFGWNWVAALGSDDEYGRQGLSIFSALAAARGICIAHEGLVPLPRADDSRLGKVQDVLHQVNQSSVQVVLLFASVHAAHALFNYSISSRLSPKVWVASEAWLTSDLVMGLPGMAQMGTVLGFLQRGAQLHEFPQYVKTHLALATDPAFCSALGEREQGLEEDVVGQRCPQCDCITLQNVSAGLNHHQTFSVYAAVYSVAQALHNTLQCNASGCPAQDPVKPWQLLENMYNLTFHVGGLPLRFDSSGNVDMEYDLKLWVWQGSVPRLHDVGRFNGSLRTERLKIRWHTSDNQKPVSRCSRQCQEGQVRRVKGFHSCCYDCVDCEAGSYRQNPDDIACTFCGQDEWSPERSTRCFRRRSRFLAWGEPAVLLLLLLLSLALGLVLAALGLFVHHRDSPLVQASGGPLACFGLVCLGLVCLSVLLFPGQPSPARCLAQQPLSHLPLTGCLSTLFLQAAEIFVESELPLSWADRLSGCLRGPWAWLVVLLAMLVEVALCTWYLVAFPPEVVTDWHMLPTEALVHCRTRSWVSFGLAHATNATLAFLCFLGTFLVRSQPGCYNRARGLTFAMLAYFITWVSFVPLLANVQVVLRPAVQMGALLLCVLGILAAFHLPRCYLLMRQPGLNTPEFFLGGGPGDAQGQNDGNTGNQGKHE
# assay_remarks: Umami taste enhancement activity assay (EC50 ratio vs. MSG)
# Format: cell-based
# experimental_parameters: compound present at 1 μM
result_type: EC50 ratio (enhanced the effectiveness of monosodium glutamate)

Solved entries (count: 3):
compound	reported
Cc1ccc(CCNC(=O)c2occc2C)cc1 [Example 120]	3.3
CCCC(CCC)NC(=O)c1ccc(OC)cc1C#N [Example 97]	4.52
CC1CCCC(NC(=O)c2ccc3c(c2)OCO3)C1C (stereo not drawn) [Example 4]	8.4

(1) COc1ccc(CNC(=O)c2ccccc2-n2cccc2)c(OC)c1 [Example 121]
(2) CCCC(CCC)NC(=O)c1ccc2c(c1)OC(F)(F)O2 [Example 22]
(3) CCCC(CCC)NC(=O)Nc1ccccc1Cl [Example 158]
Exercise: Please list these in order of increasing EC50 ratio (enhanced the effectiveness of monosodium glutamate). Thank you! Rank the items, then write their labels in that order.
Key: 2, 3, 1

Origin of the recorded values: patent US8124121B2
